# EXPERIMENTAL TARGET: Protein A, recombinant (P7837) (Staphylococcus aureus, UniProt P02976 37-327)
# METHOD: ELONA; ELONA and bead assay: 100 mM NaCl, 20 mM Tris-HCl pH 7.6, 10 mM MgCl2, 5 mM KCl, 1 mM CaCl2, 0.005% Tween 20, 21 C; CD: 25 mM Britton-Robinson pH 7.6, 100 mM NaCl, 10 mM MgCl2, 1 mM CaCl2, 5 mM KCl
# CONDITION PARAMETERS: protein: recombinant; label: 5'-biotin; G4 (parallel, di-/multimers) plus 5' imperfect hairpin
QUANTITY NAME: Kd (µM)

{"BINDER": "PA#2/8 (5'Bio) (structured_DNA) DNA: ATACCAGCTTATTCAATTAGCAACATGAGGGGGATAGAGGGGGTGGGTTCTCTCGGCTACAATCGTAATCAGTTAG", "QUANTITY NAME": "Kd", "ASSAY VALUE": 0.19}
